Tested on: WT1+ leukemia
Test: Cr51 release assay, cytotoxic CTL response vs WT1+ leukemia expressing restricting HLA allele
Type: cell-based, human
Conditions: HLA allele A0201; 50:1 E:T
Where a SMILES comes first, the peptide text is derived from it.
Property label: Cytotoxic CTL response, % vs WT1+ leukemia (%)
Use % as the unit, but write only the number.

Solved entries:
INSERT INTO assay_data (molecule, observed_value) VALUES
  ('CSCC[C@H](NC(=O)[C@H](CCC(N)=O)NC(=O)[C@H](CC(N)=O)NC(=O)[C@@H](N)Cc1c[nH]c2ccccc12)C(=O)N[C@@H](CC(N)=O)C(=O)N[C@@H](CC(C)C)C(=O)NCC(=O)N[C@@H](C)C(=O)N[C@H](C(=O)O)[C@@H](C)O [SEQ ID NO: 171] (H-WNQMNLGAT-OH; N-terminus and C-terminus assumed)', 19),
  ('CC(C)C[C@H](NC(=O)[C@@H](NC(=O)[C@H](C)NC(=O)CNC(=O)[C@H](CC(C)C)NC(=O)[C@@H](N)CC(N)=O)[C@@H](C)O)C(=O)N[C@@H](CCCCN)C(=O)NCC(=O)N[C@H](C(=O)O)C(C)C [SEQ ID NO: 175] (H-NLGATLKGV-OH; N-terminus and C-terminus assumed)', 19),
  ('CC(C)C[C@H](NC(=O)[C@H](C)NC(=O)[C@H](CS)NC(=O)CNC(=O)CN)C(=O)N1CCC[C@H]1C(=O)N[C@H](C(=O)N[C@@H](CO)C(=O)NCC(=O)N[C@@H](C)C(=O)O)C(C)C [SEQ ID NO: 153] (H-GGCALPVSGA-OH; N-terminus and C-terminus assumed)', 47),
  ('CC[C@H](C)[C@H](NC(=O)[C@H](C)N)C(=O)N[C@@H](CC(C)C)C(=O)N[C@@H](CC(=O)O)C(=O)N[C@@H](Cc1ccccc1)C(=O)N[C@@H](CC(C)C)C(=O)N[C@@H](CC(C)C)C(=O)N[C@@H](CC(C)C)C(=O)N[C@@H](CCC(N)=O)C(=O)O [SEQ ID NO: 147] (H-AILDFLLLQ-OH; N-terminus and C-terminus assumed)', 19),
  ('CC(C)C[C@H](N)C(=O)N[C@@H](CC(=O)O)C(=O)N[C@@H](Cc1ccccc1)C(=O)N[C@@H](C)C(=O)N1CCC[C@H]1C(=O)N1CCC[C@H]1C(=O)NCC(=O)N[C@@H](C)C(=O)N[C@@H](CO)C(=O)O [SEQ ID NO: 155] (H-LDFAPPGAS-OH; N-terminus and C-terminus assumed)', 40);

Q) Given C[C@H](NC(=O)[C@@H]1CCCN1)C(=O)N1CCC[C@H]1C(=O)N1CCC[C@H]1C(=O)N1CCC[C@H]1C(=O)N1CCC[C@H]1C(=O)N1CCC[C@H]1C(=O)N1CCC[C@H]1C(=O)N1CCC[C@H]1C(=O)O [SEQ ID NO: 158] (H-PAPPPPPPP-OH; N-terminus and C-terminus assumed) , report its Cytotoxic CTL response, % vs WT1+ leukemia on WT1+ leukemia.
A) 0

Q) # assay system WT1+ leukemia: give Cytotoxic CTL response, % vs WT1+ leukemia of CC(C)C[C@H](NC(=O)[C@@H](N)CCCCN)C(=O)NCC(=O)N[C@@H](C)C(=O)N[C@@H](C)C(=O)N[C@@H](CCC(=O)O)C(=O)N[C@@H](C)C(=O)N[C@@H](CO)C(=O)N[C@@H](C)C(=O)O [SEQ ID NO: 150] (H-KLGAAEASA-OH; N-terminus and C-terminus assumed)
A) 37
